Target: hGYS1 enzyme (recombinant hGYS1/GN1 protein) (Homo sapiens (Human), UniProt P13807)
Sequence (P13807 whole entry): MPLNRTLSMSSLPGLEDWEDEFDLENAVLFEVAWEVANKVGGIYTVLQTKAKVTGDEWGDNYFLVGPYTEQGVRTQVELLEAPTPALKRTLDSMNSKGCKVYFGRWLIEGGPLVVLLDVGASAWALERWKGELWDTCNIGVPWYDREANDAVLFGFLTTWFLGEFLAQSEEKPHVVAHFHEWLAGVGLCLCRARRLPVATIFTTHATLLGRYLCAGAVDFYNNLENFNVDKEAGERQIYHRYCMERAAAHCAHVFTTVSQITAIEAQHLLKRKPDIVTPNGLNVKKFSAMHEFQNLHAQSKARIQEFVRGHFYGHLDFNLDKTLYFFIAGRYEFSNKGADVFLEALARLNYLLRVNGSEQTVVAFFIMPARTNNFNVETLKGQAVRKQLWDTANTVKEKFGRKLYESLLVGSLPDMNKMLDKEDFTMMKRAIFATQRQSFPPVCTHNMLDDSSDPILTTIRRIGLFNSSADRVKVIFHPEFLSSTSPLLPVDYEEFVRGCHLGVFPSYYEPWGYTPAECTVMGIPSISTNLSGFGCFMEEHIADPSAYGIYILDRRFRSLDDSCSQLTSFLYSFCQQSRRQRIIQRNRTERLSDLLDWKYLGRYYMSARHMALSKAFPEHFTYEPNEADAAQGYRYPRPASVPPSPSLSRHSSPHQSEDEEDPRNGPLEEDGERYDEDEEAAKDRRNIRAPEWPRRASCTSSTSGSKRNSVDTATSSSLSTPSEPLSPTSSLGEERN
Sequence (P46976 whole entry partner): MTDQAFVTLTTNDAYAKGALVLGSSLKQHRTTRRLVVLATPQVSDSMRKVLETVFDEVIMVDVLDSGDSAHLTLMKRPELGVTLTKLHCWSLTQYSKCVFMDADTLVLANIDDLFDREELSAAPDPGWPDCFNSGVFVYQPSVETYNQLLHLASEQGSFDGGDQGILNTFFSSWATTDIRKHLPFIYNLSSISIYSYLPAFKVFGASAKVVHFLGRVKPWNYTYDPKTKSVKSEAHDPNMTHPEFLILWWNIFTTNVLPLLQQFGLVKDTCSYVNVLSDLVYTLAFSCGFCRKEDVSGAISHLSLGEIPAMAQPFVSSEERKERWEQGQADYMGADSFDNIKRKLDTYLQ
Experiment: GYS1 coupled enzyme assay (PK/LDH)
Conditions: hGYS1/GN1 50 nM, UDP-Glucose 0.8 mM, G6P 1 mM; geometric mean of at least 2 runs
outcome_measure: IC50 (nM)
Quick note: give the figure in nM, leave out the unit.

Name the reported IC50 value associated with the molecule CC(C)c1ccc([C@@H](NC(=O)[C@@H]2C[C@@H](F)CN2C(=O)Cc2nnc(CNC(=O)OC(C)(C)C)o2)c2ccccc2)cc1
54

Another molecule: CC(C)c1ccc([C@@H](NC(=O)[C@@H]2C[C@@H](F)CN2C(=O)Cc2cncnc2)c2ccccc2)cc1F
32

Another molecule: Cn1nc(CC(=O)N2C[C@H](F)C[C@H]2C(=O)N[C@@H](c2ccccc2)c2ccc(C3CC3)c(F)c2)c2ccccc21
28

Another molecule: CC(Cc1ccncc1)C(=O)N1C[C@H](F)C[C@H]1C(=O)N[C@@H](c1ccccc1)c1ccc(C(C)C)cc1 (stereo partly drawn)
244

Another molecule: CC(C)c1ccc([C@@H](NC(=O)[C@@H]2C[C@@H](F)CN2C(=O)Cc2noc(=O)n2C)c2ccccc2)nc1F
59

Another molecule: CC(C)c1ccc([C@@H](NC(=O)[C@@H]2C[C@@H](F)CN2C(=O)Cn2nnc(C(F)F)n2)c2ccccc2)nc1
39

---

Biological target: hGYS1 enzyme (recombinant hGYS1/GN1 protein) (Homo sapiens (Human))
Assay: GYS1 coupled enzyme assay (PK/LDH)
Details: hGYS1/GN1 50 nM, UDP-Glucose 0.8 mM, G6P 1 mM; geometric mean of at least 2 runs
Description: The GYS1 coupled enzyme assay is a kinetic biochemical assay that indirectly quantifies the rate of glycogen synthesis by coupling the conversion of GYS1 substrate UDP-glucose into UDP with downstream enzymatic reactions. UDP is released from UDP-glucose as glucose monomers are linked into the growing glycogen strand by GYS1. […] Oxidation of NADH to NAD+ can be measured continuously with a plate reader by quantifying the decrease in NADH absorbance at 340 nm over time. […]
outcome_measure: pIC50
Bear in mind: pIC50 is minus log10 of a mol/L concentration; give just that figure.

hGYS1 enzyme (recombinant hGYS1/GN1 protein) (Homo sapiens (Human)) / pIC50 / COc1nn(C)cc1C(=O)N1C[C@H](F)C[C@H]1C(=O)N[C@@H](c1ccccc1)c1ccc(C(C)C)cc1 : value?
6.61

Another compound: O=C(N[C@@H](c1ccccc1)c1ccc(C2CC2)c(F)n1)[C@@H]1C[C@@H](F)CN1C(=O)Cn1nncc1C(F)(F)F
7.62

Another compound: CC(=O)N1C[C@H]2C[C@H](C(=O)N3C[C@H](F)C[C@H]3C(=O)N[C@@H](c3ccccc3)c3ccc(C(C)C)cc3)O[C@H]2C1
6.87

Another compound: CC(=O)N1[C@H](C(=O)N[C@@H](c2ccccc2)c2ccc(C(C)C)cc2)C[C@@H]2C[C@@H]21
5.92

Another compound: CC(C)c1ccc([C@@H](NC(=O)[C@@H]2C[C@@H](F)CN2C(=O)COC(=O)N2CCN(C(=O)OC(C)(C)C)CC2)c2ccccc2)cc1F
7.10

Another compound: CC(C)c1ccc([C@@H](NC(=O)[C@@H]2C[C@@H](F)CN2C(=O)Cc2nnc(CN(C)C)o2)c2ccccc2)cc1
7.10

Another compound: Cc1nn(CC(=O)N2C[C@H](F)C[C@H]2C(=O)N[C@@H](c2ccccc2)c2ccc(C3CC(F)(F)C3)cn2)c(=O)o1
7.26

Another compound: CC(C)c1ccc([C@@H](NC(=O)[C@@H]2C[C@@H](F)CN2C(=O)CCc2c[nH]c3ccccc23)c2ccccc2)cc1
7.39

Another compound: CC(C)c1ccc([C@@H](NC(=O)[C@@H]2C[C@@H](F)CN2C(=O)Cc2[nH]nnc2N2CCOCC2)c2ccccc2)cc1F
6.46

Another compound: CNC(=O)NCC(=O)N1C[C@H](F)C[C@H]1C(=O)N[C@@H](c1ccccc1)c1ccc(C(C)C)cn1
7.23

Another compound: CC(C)c1ccc([C@@H](NC(=O)[C@@H]2C[C@@H](F)CN2C(=O)CNC(=O)C(F)(F)F)c2ccccc2)cc1
7.14

Another compound: O=C(N[C@H](c1ccccc1)c1ccc(C2CC(F)(F)C2)c(F)n1)[C@@H]1C[C@@H](F)CN1C(=O)Cc1ccc[nH]c1=O
5.58

Another compound: CC1(c2ccc([C@@H](NC(=O)[C@@H]3C[C@@H](F)CN3C(=O)COC(=O)N3CCN(CC(F)(F)F)CC3)c3ccccc3)cc2F)CC1
6.69

---

Target: hGYS1 enzyme (recombinant hGYS1/GN1 protein) (Homo sapiens (Human))
Experiment: GYS1 coupled enzyme assay (PK/LDH)
Conditions: hGYS1/GN1 50 nM, UDP-Glucose 0.8 mM, G6P 1 mM; geometric mean of at least 2 runs
outcome_measure: pIC50
Bear in mind: pIC50 is minus log10 of a mol/L concentration; give just that figure.

Name the reported pIC50 value associated with the compound CCOc1ncc(CC(=O)N2C[C@H](F)C[C@H]2C(=O)N[C@@H](c2ccccc2)c2ccc(C(C)C)c(F)n2)cc1C
7.92

Another compound: CC(=O)NCC(=O)N1C[C@H](F)C[C@H]1C(=O)NC(c1cccc(-c2ccn[nH]2)c1)c1ccc(C(C)C)c(F)n1 (single isomer, unassigned)
7.82

Another compound: Cc1nn(CC(=O)N2C[C@H](F)C[C@H]2C(=O)N[C@@H](c2ccccc2)c2ccc(C3CC(F)(F)C3)c(F)n2)c(=O)o1
8.00

Another compound: Cn1c(CC(=O)N2C[C@H](F)C[C@H]2C(=O)N[C@@H](c2ccccc2)c2ccc(C3CC3)c(F)n2)noc1=O
6.60

Another compound: CC(C)c1ccc([C@@H](NC(=O)[C@@H]2C[C@@H](F)CN2C(=O)Cc2ccc3ncnn3c2)c2ccccc2)cc1
7.70

Another compound: CC(C)c1ccc([C@@H](NC(=O)[C@@H]2C[C@@H](F)CN2C(=O)COC(=O)N2CCNCC2)c2ccccc2)cc1F
7.72

Another compound: CC(C)c1ccc([C@@H](NC(=O)[C@@H]2C[C@@H](F)CN2C(=O)C(C)n2ccccc2=O)c2ccccc2)cc1 (stereo partly shown)
6.98

Another compound: CC(C)c1ccc([C@@H](NC(=O)[C@@H]2C[C@@H](F)CN2C(=O)Cn2cncn2)c2ccccc2)cc1
7.48

Another compound: Cc1nc2ccccc2n1CC(=O)N1C[C@H](F)C[C@H]1C(=O)N[C@@H](c1ccccc1)c1ccc(C2(C)CC2)c(F)n1
7.72

Another compound: Cc1cc(C(NC(=O)[C@@H]2C[C@@H](F)CN2C(=O)Cc2c(C)nn(C)c2C)c2cccnc2N)ccc1C(C)C (single isomer, unassigned)
6.86

Another compound: CC(C)c1ccc([C@@H](NC(=O)[C@@H]2C[C@@H](F)CN2C(=O)Cn2cc(C(F)(F)F)cn2)c2ccccc2)nc1F
7.70

Another compound: CC(C)c1ccc(C(NC(=O)[C@@H]2C[C@@H](F)CN2C(=O)Cc2cnn[nH]2)c2cccc(N)n2)cc1F (single isomer, unassigned)
6.26

Another compound: CC(=O)N1CCN(CC(=O)N2C[C@H](F)C[C@H]2C(=O)N[C@@H](c2ccccc2)c2ccc(C(C)C)cc2)C(=O)C1
7.16

---

Target: hGYS1 enzyme (recombinant hGYS1/GN1 protein) (Homo sapiens (Human), UniProt P13807)
Experiment: GYS1 coupled enzyme assay (PK/LDH)
Conditions: hGYS1/GN1 50 nM, UDP-Glucose 0.8 mM, G6P 1 mM; geometric mean of at least 2 runs
Kindly supply the reported pIC50 values for the records listed here.
Bear in mind: pIC50 is minus log10 of a mol/L concentration; give just that figure.

Name the reported pIC50 value associated with the compound CC(C)c1ccc([C@@H](NC(=O)[C@@H]2C[C@@H](F)CN2C(=O)Cn2nccc2C(F)F)c2ccccc2)nc1F [Compound 783]
8.30

Another compound: CCn1c(=O)c(C)cn(CC(=O)N2C[C@H](F)C[C@H]2C(=O)N[C@@H](c2ccccc2)c2ccc(C3CC3)c(F)n2)c1=O [Compound 733]
8.30

Another compound: CC1(c2ccc([C@@H](NC(=O)[C@@H]3C[C@@H](F)CN3C(=O)Cc3cnn[nH]3)c3cccnc3)cc2F)CC1 [Compound 559]
5.80

---

Molecular target: hGYS1 enzyme (recombinant hGYS1/GN1 protein) (Homo sapiens (Human))
Experiment: GYS1 coupled enzyme assay (PK/LDH)
Assay type: biochemical
Conditions: hGYS1/GN1 50 nM, UDP-Glucose 0.8 mM, G6P 1 mM; geometric mean of at least 2 runs
Text: The GYS1 coupled enzyme assay is a kinetic biochemical assay that indirectly quantifies the rate of glycogen synthesis by coupling the conversion of GYS1 substrate UDP-glucose into UDP with downstream enzymatic reactions. UDP is released from UDP-glucose as glucose monomers are linked into the growing glycogen strand by GYS1. […] Oxidation of NADH to NAD+ can be measured continuously with a plate reader by quantifying the decrease in NADH absorbance at 340 nm over time. […]
outcome_measure: pIC50
Bear in mind: pIC50 is minus log10 of a mol/L concentration; give just that figure.

Name the reported pIC50 value associated with the molecule CC(C)c1ccc([C@@H](NC(=O)[C@@H]2C[C@@H](F)CN2C(=O)Cc2cccc3ncccc23)c2ccccc2)nc1
8.00

Another molecule: CC(C)c1ccc([C@@H](NC(=O)[C@@H]2C[C@@H](F)CN2C(=O)Cc2nn(C)c(=O)n2C)c2ccccc2)nc1
6.84

Another molecule: CC(C)c1ccc([C@@H](NC(=O)[C@@H]2C[C@@H](F)CN2C(=O)C(C)c2cnn[nH]2)c2ccccc2)cc1F (single isomer, unassigned) [Compound 770]
7.21

Another molecule: CC(C)c1ccc([C@@H](NC(=O)[C@@H]2C[C@@H](F)CN2C(=O)Cn2ccccc2=O)c2ccccc2)cc1
7.72

Another molecule: Cc1ccnn1CC(=O)N1C[C@H](F)C[C@H]1C(=O)N[C@@H](c1ccccc1)c1ccc(C(C)C)c(F)n1
7.96

Another molecule: CC(C)c1ccc([C@@H](NC(=O)[C@@H]2C[C@@H](F)CN2C(=O)Cn2cnc3ccccc32)c2ccccc2)nc1
7.92

Another molecule: Cn1nc(CC(=O)N2C[C@H](F)C[C@H]2C(=O)N[C@@H](c2ccccc2)c2ccc(C3CC3)c(F)n2)oc1=O
7.11

Another molecule: CC(=O)NCCCC(=O)N1C[C@H](F)C[C@H]1C(=O)N[C@@H](c1ccccc1)c1ccc(C(C)C)cc1
6.88

Another molecule: CC(C)c1ccc([C@@H](NC(=O)[C@@H]2C[C@@H](F)CN2C(=O)CNC(=O)N(C)C)c2ccccc2)nc1F
8.15

Another molecule: CC(C)c1ccc([C@@H](NC(=O)[C@@H]2C[C@@H](F)CN2C(=O)CCn2cncn2)c2ccccc2)cc1
6.73

Another molecule: O=C(N[C@@H](c1ccccc1)c1ccc(C2CC2)c(Cl)c1)[C@@H]1C[C@@H](F)CN1C(=O)Cc1cnn[nH]1
6.94

Another molecule: CC1(c2ccc([C@@H](NC(=O)[C@@H]3C[C@@H](F)CN3C(=O)COC(=O)N3CCC3)c3ccccc3)cc2F)CC1
6.84

Another molecule: CC(C)c1ccc([C@@H](NC(=O)[C@@H]2C[C@@H](F)CN2C(=O)Cn2ccc(C(F)F)n2)c2ccccc2)nc1F
8.00
